MEASUREMENT_NAME: melting point

Field: example entries. Status: answers known.
COMPOUND: CN1CCN(C(=O)c2ccc(-c3cnc4c(c3)N(Cc3ccccc3)CCN4)cc2)CC1
MEASUREMENT_NAME: melting point
RESULT: 180 to 181 °C
--
COMPOUND: O=C1CNc2ncc(I)cc2N1Cc1cc(F)ccc1C(F)(F)F
MEASUREMENT_NAME: melting point
RESULT: 244 to 245 °C
--
COMPOUND: Clc1ccc(Cl)c(CN2CCNc3ncc(-c4ccc(N5CCCC5)nc4)cc32)c1
MEASUREMENT_NAME: melting point
RESULT: > 200 °C
--
COMPOUND: CN1CCN(c2ccc(-c3cnc4c(c3)NCCN4)cn2)CC1
MEASUREMENT_NAME: melting point
RESULT: 225 °C (dec.)
--
COMPOUND: O=C(c1ccc(-c2cnc3c(c2)N(Cc2cc(Cl)ccc2Cl)C(=O)CN3)cc1)N1CCC(N2CCCC2)CC1
MEASUREMENT_NAME: melting point
RESULT: > 200 °C

Reported melting point, compound "CC1(C)Nc2ncc(I)cc2NC1=O" : ____
> 300 °C

Reported melting point, compound "Clc1cccc(Cl)c1CN1CCNc2ncc(I)cc21" : ____
> 200 °C

Reported melting point, compound "N#Cc1cnc2c(c1)N(Cc1cc(F)ccc1F)CCN2" : ____
204 to 206 °C

Reported melting point, compound "Fc1ccc(F)c(CN2CCNc3ncc(I)cc32)c1Cl" : ____
156 to 157 °C

Reported melting point, compound "NCC#Cc1cnc2c(c1)N(Cc1cc(Cl)ccc1Cl)CCN2" : ____
183 °C

Reported melting point, compound "O=C(c1ccc(-c2cnc3c(c2)N(Cc2cc(F)ccc2F)CCN3)cc1)N1CCC[C@H]1CN1CCCC1" : ____
143 to 144 °C

Reported melting point, compound "FC(F)(F)c1ccc(CN2CCNc3ncc(I)cc32)o1" : ____
153 to 154 °C

Reported melting point, compound "Fc1ccc(F)c(CN2CCNc3ncc(I)cc32)c1" : ____
175 °C

Reported melting point, compound "Clc1cc(-c2cnc3c(c2)N(Cc2c(Cl)cccc2Cl)CCN3)ccn1" : ____
194 °C

----------
pIC50: −log10 of the molar value. Counter-ions that a name gives are not always drawn.
Endpoint: pIC50. System: baculovirus-expressed ALK (Homo sapiens). Items follow. Also: 1 µM ATP (Km level).
Sequence (Q9UM73 19-1620): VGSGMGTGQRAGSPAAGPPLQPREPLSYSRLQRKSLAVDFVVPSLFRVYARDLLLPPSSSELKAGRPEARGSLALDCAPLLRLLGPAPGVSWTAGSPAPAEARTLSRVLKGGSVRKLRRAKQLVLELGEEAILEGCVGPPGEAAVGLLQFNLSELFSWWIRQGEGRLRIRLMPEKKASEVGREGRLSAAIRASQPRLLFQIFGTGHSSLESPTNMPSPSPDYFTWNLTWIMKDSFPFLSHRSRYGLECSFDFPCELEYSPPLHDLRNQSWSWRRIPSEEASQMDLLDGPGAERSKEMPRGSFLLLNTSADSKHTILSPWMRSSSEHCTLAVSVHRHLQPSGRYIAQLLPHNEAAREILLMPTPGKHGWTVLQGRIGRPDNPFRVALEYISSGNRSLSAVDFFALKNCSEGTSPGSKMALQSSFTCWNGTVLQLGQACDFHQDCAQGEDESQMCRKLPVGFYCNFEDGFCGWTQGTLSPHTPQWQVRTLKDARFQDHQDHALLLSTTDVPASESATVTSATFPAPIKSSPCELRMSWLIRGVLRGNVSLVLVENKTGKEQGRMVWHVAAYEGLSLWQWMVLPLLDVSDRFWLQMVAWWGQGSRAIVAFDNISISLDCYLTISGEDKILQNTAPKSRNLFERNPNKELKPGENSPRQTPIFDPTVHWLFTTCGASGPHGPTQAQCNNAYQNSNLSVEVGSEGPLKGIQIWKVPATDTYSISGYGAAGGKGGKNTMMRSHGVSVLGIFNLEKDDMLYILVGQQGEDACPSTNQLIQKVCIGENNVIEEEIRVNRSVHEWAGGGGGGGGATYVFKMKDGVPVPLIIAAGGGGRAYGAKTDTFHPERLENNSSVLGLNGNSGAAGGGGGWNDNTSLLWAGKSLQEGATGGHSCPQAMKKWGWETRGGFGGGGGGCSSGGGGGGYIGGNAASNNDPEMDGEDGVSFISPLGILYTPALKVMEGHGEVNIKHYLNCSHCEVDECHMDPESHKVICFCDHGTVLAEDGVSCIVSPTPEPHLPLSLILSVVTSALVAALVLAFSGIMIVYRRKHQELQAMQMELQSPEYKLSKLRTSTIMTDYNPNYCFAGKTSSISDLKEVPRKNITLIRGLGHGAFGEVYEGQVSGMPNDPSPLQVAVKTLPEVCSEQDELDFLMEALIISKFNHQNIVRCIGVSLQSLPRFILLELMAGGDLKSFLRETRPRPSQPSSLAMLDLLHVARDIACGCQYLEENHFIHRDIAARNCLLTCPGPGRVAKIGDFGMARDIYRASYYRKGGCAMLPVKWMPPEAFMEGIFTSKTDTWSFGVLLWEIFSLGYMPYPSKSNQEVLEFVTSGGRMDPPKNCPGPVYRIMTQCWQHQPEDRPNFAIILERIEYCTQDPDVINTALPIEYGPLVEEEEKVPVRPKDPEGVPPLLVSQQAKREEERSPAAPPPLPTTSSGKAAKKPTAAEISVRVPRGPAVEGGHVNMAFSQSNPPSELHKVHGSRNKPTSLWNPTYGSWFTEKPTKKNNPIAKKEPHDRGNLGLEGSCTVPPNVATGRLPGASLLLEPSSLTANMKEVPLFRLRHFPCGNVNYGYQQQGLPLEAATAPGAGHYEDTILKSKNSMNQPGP

MOLECULE: O=C(c1cccc(-c2cnc3c(c2)N(Cc2cc(Cl)ccc2C(F)(F)F)CCN3)c1)N1CCN(CCc2ccccn2)CC1 [Example 330]
MEASUREMENT_NAME: pIC50
RESULT: 6.00 to 7.00

MOLECULE: CN1CCN(C(=O)c2ccc(-c3cnc4c(c3)N(Cc3cc(Cl)ccc3Cl)CCN4)cc2)CC1 [Example 132]
MEASUREMENT_NAME: pIC50
RESULT: > 7.00

MOLECULE: O=C1CNc2ncc(-c3ccc(C(=O)N4CCC[C@H]4CN4CCCC4)cc3)cc2N1Cc1ccccc1 [Example 13, trifluoroacetic acid salt]
MEASUREMENT_NAME: pIC50
RESULT: 4.00 to 5.00

MOLECULE: O=C(NCCOc1ccccc1)c1cccc(-c2cnc3c(c2)N(Cc2cc(Cl)ccc2C(F)(F)F)CCN3)c1 [Example 355]
MEASUREMENT_NAME: pIC50
RESULT: 6.00 to 7.00

MOLECULE: COc1ccccc1N1CCN(C(=O)c2cnc3c(c2)N(Cc2cc(Cl)ccc2Cl)CCN3)CC1 [Example 210]
MEASUREMENT_NAME: pIC50
RESULT: 5.00 to 6.00

MOLECULE: O=C(NCc1cccnc1)c1ccc(-c2cnc3c(c2)N(Cc2cc(Cl)ccc2C(F)(F)F)CCN3)cc1 [Example 401]
MEASUREMENT_NAME: pIC50
RESULT: 6.00 to 7.00

Entry O=C(NCCc1ccccc1)c1ccc(-c2cnc3c(c2)N(Cc2cc(Cl)ccc2C(F)(F)F)CCN3)cc1 [Example 416] , system baculovirus-expressed ALK (Homo sapiens): what pIC50 was measured?; also: 1 µM ATP (Km level)
6.00 to 7.00
